Target: T1, monkey NPR1 extracellular domain expressed with a C-terminal myc-myc-hexahistidine (mfNPR1-MMH) (monkey, UniProt P16066 33-473 (human entry))
T1 construct: also called monomeric monkey NPR1
T1 chain: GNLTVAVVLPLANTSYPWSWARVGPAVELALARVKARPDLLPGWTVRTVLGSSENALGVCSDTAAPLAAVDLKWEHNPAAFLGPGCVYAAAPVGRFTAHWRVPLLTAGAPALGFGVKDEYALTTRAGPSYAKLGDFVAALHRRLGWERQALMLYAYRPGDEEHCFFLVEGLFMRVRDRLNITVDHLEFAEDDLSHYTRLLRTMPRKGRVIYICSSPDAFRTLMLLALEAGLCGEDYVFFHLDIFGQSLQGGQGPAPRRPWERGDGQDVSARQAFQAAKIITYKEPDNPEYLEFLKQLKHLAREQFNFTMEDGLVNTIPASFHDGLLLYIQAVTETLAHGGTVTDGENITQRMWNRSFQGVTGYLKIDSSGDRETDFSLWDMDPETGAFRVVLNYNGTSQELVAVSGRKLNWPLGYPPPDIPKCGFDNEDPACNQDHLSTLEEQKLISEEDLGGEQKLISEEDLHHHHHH
Test: SPR, mAb captured, 25 C
Method: Equilibrium dissociation constant (KD) for different NPR1 reagents binding to purified anti-NPR1 monoclonal antibodies (mAbs) were determined using a real-time surface plasmon resonance based Biacore 4000 biosensor. All binding studies were performed in 10 mM HEPES, 150 mM NaCl, 3 mM EDTA, and 0.05% v/v Surfactant Tween-20, pH 7.4 (HBS-ET) running buffer at 25° C. and 37° C. […]
Record form. Attribute: pKd. Fill in for each entry.
Convention used: pKd is expressed as -log10 of the molar concentration.

# pKd of mAb25508 (antibody, V domains shown) VH: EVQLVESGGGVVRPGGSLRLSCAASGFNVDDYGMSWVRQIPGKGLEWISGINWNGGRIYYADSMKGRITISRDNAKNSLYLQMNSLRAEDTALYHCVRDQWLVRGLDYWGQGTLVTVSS VL: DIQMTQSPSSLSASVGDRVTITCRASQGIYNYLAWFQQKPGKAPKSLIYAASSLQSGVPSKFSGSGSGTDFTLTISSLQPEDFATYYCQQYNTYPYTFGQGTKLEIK = 9.73

# pKd of mAb22035 (antibody, V domains shown) VH: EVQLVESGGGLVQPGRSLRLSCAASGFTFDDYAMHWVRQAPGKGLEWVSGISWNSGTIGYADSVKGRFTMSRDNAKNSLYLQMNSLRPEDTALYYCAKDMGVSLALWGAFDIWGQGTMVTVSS VL: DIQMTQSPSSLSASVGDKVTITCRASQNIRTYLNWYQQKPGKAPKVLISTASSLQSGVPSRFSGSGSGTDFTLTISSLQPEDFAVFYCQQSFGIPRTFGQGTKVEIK = 9.47

# pKd of mAb22033 (antibody, V domains shown) VH: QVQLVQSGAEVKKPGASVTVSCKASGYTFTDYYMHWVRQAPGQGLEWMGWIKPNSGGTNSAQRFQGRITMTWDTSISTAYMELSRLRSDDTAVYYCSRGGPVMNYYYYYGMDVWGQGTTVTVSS VL: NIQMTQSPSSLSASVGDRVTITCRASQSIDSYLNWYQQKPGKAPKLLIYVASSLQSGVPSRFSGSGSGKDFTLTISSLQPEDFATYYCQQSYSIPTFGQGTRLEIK = 7.79

# pKd of mAb25479 (antibody, V domains shown) VH: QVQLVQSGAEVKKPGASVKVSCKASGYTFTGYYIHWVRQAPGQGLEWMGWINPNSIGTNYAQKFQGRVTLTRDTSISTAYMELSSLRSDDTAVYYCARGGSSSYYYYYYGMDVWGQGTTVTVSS VL: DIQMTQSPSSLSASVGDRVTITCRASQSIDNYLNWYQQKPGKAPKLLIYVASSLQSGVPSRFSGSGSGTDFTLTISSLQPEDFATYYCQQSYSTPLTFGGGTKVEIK = 6.61

# pKd of mAb25491 (antibody, V domains shown) VH: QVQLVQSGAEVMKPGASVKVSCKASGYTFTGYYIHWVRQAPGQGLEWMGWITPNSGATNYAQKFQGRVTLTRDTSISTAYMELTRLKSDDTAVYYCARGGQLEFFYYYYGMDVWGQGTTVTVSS VL: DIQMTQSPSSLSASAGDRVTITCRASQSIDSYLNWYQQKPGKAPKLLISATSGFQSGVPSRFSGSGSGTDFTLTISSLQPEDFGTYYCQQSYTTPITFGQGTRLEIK = 7.52

# pKd of mAb25497 (antibody, V domains shown) VH: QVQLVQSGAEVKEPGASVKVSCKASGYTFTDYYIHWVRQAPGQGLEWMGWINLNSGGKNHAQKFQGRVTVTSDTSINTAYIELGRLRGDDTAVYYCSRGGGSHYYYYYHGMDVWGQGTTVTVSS VL: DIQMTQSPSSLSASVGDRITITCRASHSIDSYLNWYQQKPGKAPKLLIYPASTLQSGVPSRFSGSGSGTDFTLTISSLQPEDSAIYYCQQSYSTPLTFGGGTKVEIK = 7.22
